# Tested on: MS2 coat protein
# measurement-notes: apparent KD of MS2 coat protein; designed switch direction (-1 OFF switch, 1 ON switch): -1; higher = weaker reporter binding
# condition-info: input ligand: FMN 200 uM
Form field: apparent KD of MS2 coat protein (one value per entry).
Supply the numeric figure in nM, leaving out any unit text.

# residue-codes, result-value
rows = [
    ("UAUUAUAAUGUAGGAUAUCUGCACGUGUAGUGCAGAGAAGGACAUGAGGAUCACCCAUGUAUAGUAGCUUCGGCUACAUUAUUU [ENG1-B3] (Eterna round: R96, puzzle: Exclusion NG 1)", 90.5),
    ("CCUUAUUCACAGGAUAUGCUCAUCUAAUGAUGAGCAGAAGGGUGGACAUGAGGAUCACCCAUGUUUAUCAAUGG [Omei Ex6 D5] (Eterna round: R97, puzzle: Exclusion 6)", 545),
    ("UGAGCUACAGGAUAUAUAUGGCGACCGUGAGGUCGAAGGUUACAUGAGGAUCACCCAUGUAGAAGGGUAGUUCU [Mat - Exclusion 2 - JL Mod - D17] (Eterna round: R97, puzzle: Exclusion 2)", 225),
]

Ask: Look up apparent KD of MS2 coat protein for this sequence: GCAGCAUAGUCCAAAUAGGACAUACAUGAGGAUCACCCAUGUCAGGAUAUGGUCUGGAUUACAGGCCAGAAGGGACGAAGCUGC [Eli exng3 - 005] (Eterna round: R96, puzzle: Exclusion NG 3)
Result: 18

Ask: Same question, GCUUGUGGGCAAGGAUAUCCUACGCUGUUCUGGUUCGUGUCUGUCACAUGAGGAUCACCCAUGUGGGAGAAGGUGCAUUUGGGU [Design 58] (Eterna round: R96, puzzle: Exclusion NG 2) this time
Result: 17.7

Ask: Same question, UUAUUACAAGCAAGAUCCCACAUGAGGAUCACCCAUGUGCUCGUCUUAUAAGGUACAGUGACGAAAGUCACAGUACC [Sensor 3, v1 - 0] (Eterna round: R96, puzzle: Sensor v3, turn-off variant 1) this time
Result: 23.1

Ask: Same question, GUGUUACAUGAGGAUCACCCAUGUGAGGAUAUGAGUCAGUCACGGUGACGUGGCUGACUCAGAAGGCACAAAGG [Mat - Exclusion 1 - JL Mod - D39] (Eterna round: R97, puzzle: Exclusion 1) this time
Result: 291

Ask: Same question, GAUCAUGCAGGAUAUACAGUAUCCAUGAAAACAUGGAUCUCACAUGAGGAUCACCCAUGUAGAAGGGCAUGAUC [Omei Ex2 A25] (Eterna round: R97, puzzle: Exclusion 2) this time
Result: 40.1

Ask: Same question, GGCUGCAAUGUAGGAUAUCUGCACGAUUAGUGCAGAGAAGGACAUGAGGAUCACCCAUGUAUAGUAGCUUCGGCUACAGCAGCC [ENG1-D1] (Eterna round: R96, puzzle: Exclusion NG 1) this time
Result: 17.1
